Assayed System: Aurora kinase C (Homo sapiens) (UniProt Q9UQB9)
Sequence (Q9UQB9 whole entry): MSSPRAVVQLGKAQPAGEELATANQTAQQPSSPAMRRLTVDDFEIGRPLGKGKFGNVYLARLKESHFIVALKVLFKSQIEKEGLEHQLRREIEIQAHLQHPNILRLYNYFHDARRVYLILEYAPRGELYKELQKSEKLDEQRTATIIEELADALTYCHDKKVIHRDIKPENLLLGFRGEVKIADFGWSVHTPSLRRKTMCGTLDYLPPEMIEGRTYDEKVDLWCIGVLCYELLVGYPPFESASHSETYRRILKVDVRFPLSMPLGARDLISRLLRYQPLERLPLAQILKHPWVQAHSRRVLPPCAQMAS
Assay Conditions: at 10 µM
Entries and their residual activity

# count of solved cases: 8
• Nc1cccc(-c2cc3c(Oc4cccc(O)c4)ncnc3[nH]2)c1 = 20%
• NC(=O)c1ccc2[nH]c(-c3ccc(Oc4ccc(Cl)cc4)cc3)nc2c1 = 79%
• CCC(=O)Nc1ccc2ncnc(Nc3cccc(Br)c3)c2c1 = 80%
• COc1ccc(C(=O)Nc2sc3c(c2C(N)=O)CCCC3)cc1OC = 76%
• Nc1nc(Nc2ccc(S(N)(=O)=O)cc2)nn1C(=S)Nc1c(F)cccc1F = 0%
• COc1cc2ncnc(Nc3ccc(Oc4ccccc4)cc3)c2cc1OC = 59%
• COc1ccc(OC)c2c(=S)c3ccccc3[nH]c12 = 75%
• Ic1cccc(CSc2nnc(-c3ccncc3)o2)c1 = 74%

# residual activity (compound: "CN(C)CCCn1cc(C2=C(c3c[nH]c4ccccc34)C(=O)NC2=O)c2ccccc21" ) is 72%

# residual activity (compound: "CC#CC(=O)Nc1cc2c(Nc3ccc(F)c(Cl)c3)ncnc2cn1" ) is 73%

# residual activity (compound: "CCN(CC)C(=O)c1ccc(Nc2nc(OCC3CCCCC3)c3nc[nH]c3n2)cc1" ) is 2%

# residual activity (compound: O=C1Nc2ccccc2/C1=C1/Nc2ccccc2/C1=N\OCCC(O)CO (stereo not given) ) is 30%

# residual activity (compound: "CO[C@@H]1[C@H](N(C)C(=O)c2ccccc2)C[C@H]2O[C@]1(C)n1c3ccccc3c3c4c(c5c6ccccc6n2c5c31)C(=O)NC4" ) is 20%

# residual activity (compound: "O=C(Nc1cccc(Nc2cc(Nc3cccc(C(F)(F)F)c3)ncn2)c1)C1CC1" ) is 87%

# residual activity (compound: "O=C1NC(=O)c2cc(Nc3ccc(F)cc3)c(Nc3ccc(F)cc3)cc21" ) is 73%

# residual activity (compound: "CO[C@H]1C[C@@H]2CC[C@@H](C)[C@@](O)(O2)C(=O)C(=O)N2CCCC[C@H]2C(=O)O[C@H]([C@H](C)C[C@@H]2CC[C@@H](O)[C@H](OC)C2)CC(=O)[C@H](C)/C=C(\C)[C@@H](O)[C@@H](OC)C(=O)[C@H](C)C[C@H](C)/C=C/C=C/C=C/1C" ) is 69%

# residual activity (compound: "N#Cc1cnc2cnc(NCc3cccnc3)cc2c1Nc1ccc(F)c(Cl)c1" ) is 54%

# residual activity (compound: "O=C1c2ccccc2-[n+]2ccc3c([nH]c4ccccc43)c21" ) is 72%

# residual activity (compound: "O=C1NC(=O)/C(=C\c2ccc3nccnc3c2)S1" ) is 59%

# residual activity (compound: "O=Nc1c(-c2c(O)[nH]c3ccccc23)[nH]c2ccccc12" ) is 49%

* * *

Assayed System: Serine/threonine-protein kinase 17A (Homo sapiens)
Assay Conditions: at 1 µM
Metric: residual activity (%)
Use % as the unit, but write only the number.

- Cc1cc(Nc2nc(-c3ccccc3)nc3ccccc23)n[nH]1: 42
- c1ccc(-c2n[nH]c3c2oc2ccccc23)cc1: 43

# residual activity (compound: "Nc1n[nH]c2nnc(-c3c(-c4ccccc4)nn4ccccc34)cc12" ) is 83

# residual activity (compound: "CC[n+]1c(/C=C/N(C)c2ccccc2)n(-c2ccccc2)c2ccc(-c3nc4ccccc4s3)cc21" ) is 119

* * *

Assayed System: cGMP-dependent protein kinase 1 (Homo sapiens)
Assay Conditions: at 10 µM
The label is T for residual activity below 80% and F for residual activity equal to or exceeding 80%.

Here's what some known entries look like.
• c1ccc2c(-c3ccncc3)c[nH]c2c1 = T
• Cc1cc(Nc2nc(-c3ccccc3)nc3ccccc23)n[nH]1 = T
• Nc1cccc(-c2cc3c(Oc4cccc(O)c4)ncnc3[nH]2)c1 = F
• O=C1NC(=O)c2c1c1c3ccccc3[nH]c1c1[nH]c3cc(Br)ccc3c21 = F
• COc1ccc(OC)c2c(=S)c3ccccc3[nH]c12 = T

Dear colleague, could you confirm whether residual activity of "c1ccc(-c2n[nH]c3c2oc2ccccc23)cc1" falls below 80%? Thanks.
F

* * *

Assayed System: Myosin light chain kinase, smooth muscle (Homo sapiens)
Assay Conditions: at 10 µM
Metric: residual activity (%)
Use % as the unit, but write only the number.

• CCN(CC)CCCCN1c2ccccc2Oc2ccc(Cl)cc21 = 102
• COc1cc2ncnc(Nc3ccc(O)c(Br)c3)c2cc1OC = 37
• Cc1ccc(NC2=CC(=O)c3sc(C)nc3C2=O)cc1 = 82
• O=C1Nc2ccccc2/C1=C1/Nc2ccccc2/C1=N\OCCC(O)CO (stereo unspecified) = 20
• c1ccc(-c2n[nH]cc2-c2ccnc3ccccc23)nc1 = 97

Kindly consider the entry below.
# residual activity (compound: "COc1cc2ncnc(Nc3ccc(NC(=O)c4ccccc4)cc3)c2cc1OC" ) is 96

* * *

Assayed System: Platelet-derived growth factor receptor alpha (Homo sapiens) (UniProt P16234)
Sequence (P16234 whole entry): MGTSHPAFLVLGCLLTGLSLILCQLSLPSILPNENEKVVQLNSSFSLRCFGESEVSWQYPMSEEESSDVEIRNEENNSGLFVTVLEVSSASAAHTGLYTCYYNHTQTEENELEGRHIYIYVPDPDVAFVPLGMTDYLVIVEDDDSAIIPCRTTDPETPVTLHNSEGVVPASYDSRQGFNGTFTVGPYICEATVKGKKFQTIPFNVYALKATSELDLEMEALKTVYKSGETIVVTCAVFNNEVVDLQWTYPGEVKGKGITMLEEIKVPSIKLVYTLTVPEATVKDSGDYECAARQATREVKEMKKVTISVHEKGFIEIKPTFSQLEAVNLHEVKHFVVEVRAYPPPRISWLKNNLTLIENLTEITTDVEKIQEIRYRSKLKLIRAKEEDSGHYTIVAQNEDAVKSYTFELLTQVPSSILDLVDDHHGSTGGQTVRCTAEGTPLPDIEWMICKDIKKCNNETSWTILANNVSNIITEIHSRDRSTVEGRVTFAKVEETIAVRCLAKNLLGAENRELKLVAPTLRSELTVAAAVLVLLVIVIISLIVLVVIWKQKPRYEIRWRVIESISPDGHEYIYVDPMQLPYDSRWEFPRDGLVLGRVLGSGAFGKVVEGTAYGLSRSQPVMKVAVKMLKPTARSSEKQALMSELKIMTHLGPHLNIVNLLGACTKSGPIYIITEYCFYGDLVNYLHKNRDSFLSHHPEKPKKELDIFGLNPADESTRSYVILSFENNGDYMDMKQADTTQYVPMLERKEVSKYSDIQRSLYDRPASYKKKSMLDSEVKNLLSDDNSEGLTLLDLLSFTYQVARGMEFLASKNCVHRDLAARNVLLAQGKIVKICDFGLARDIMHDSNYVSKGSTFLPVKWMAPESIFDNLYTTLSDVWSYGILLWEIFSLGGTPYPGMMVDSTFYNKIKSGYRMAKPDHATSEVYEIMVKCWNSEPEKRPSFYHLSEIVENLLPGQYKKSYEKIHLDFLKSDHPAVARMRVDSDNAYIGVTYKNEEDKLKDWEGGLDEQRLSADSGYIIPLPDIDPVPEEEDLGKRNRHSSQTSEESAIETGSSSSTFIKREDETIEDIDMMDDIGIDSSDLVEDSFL
Assay Conditions: at 1 µM
Metric: residual activity (%)
Use % as the unit, but write only the number.

• Nc1nc(Nc2ccc(S(N)(=O)=O)cc2)nn1C(=S)Nc1c(F)cccc1F = 82

# residual activity (molecule: "CCC(=O)Nc1ccc2ncnc(Nc3cccc(Br)c3)c2c1" ) is 117

# residual activity (molecule: "COc1ccc(OC)c2c(=S)c3ccccc3[nH]c12" ) is 109

# residual activity (molecule: "CN(C)c1ccc(/C=C2\C(=O)Nc3ccccc32)cc1" ) is 79

# residual activity (molecule: "Cc1nc2cc3nc(-c4cccs4)cnc3cc2n1C" ) is 78

* * *

Assayed System: Tyrosine-protein kinase Lck (Homo sapiens)
Assay Conditions: at 1 µM
Metric: residual activity (%)
Use % as the unit, but write only the number.

* O=C1NC(=O)c2c1c1c3ccccc3[nH]c1c1[nH]c3cc(Br)ccc3c21 | 79

# residual activity (molecule: "CO[C@H]1[C@@H](OC)C[C@H](C)[C@@H](OC)C2=CC(=O)C=C(NC(=O)/C(C)=C/C=C/[C@H](OC)[C@@H](OC(N)=O)/C(C)=C/[C@@H]1C)C2=O" ) is 142

# residual activity (molecule: "CO[C@H]1C[C@@H]2CC[C@@H](C)[C@@](O)(O2)C(=O)C(=O)N2CCCC[C@H]2C(=O)O[C@H]([C@H](C)C[C@@H]2CC[C@@H](O)[C@H](OC)C2)CC(=O)[C@H](C)/C=C(\C)[C@@H](O)[C@@H](OC)C(=O)[C@H](C)C[C@H](C)/C=C/C=C/C=C/1C" ) is 121

# residual activity (molecule: "O=C(Nc1cccc(Nc2cc(Nc3cccc(C(F)(F)F)c3)ncn2)c1)C1CC1" ) is 72

* * *

Assayed System: Eukaryotic elongation factor 2 kinase (Homo sapiens)
Assay Conditions: at 10 µM
Description: Millipore: Percentage of residual kinase activity of EEF2K at 10uM relative to control. Control inhibitor: Phosphoric acid* at 0.3uM. Buffer: 8 mM MOPS pH 7.0, 0.2 mM EDTA
Metric: residual activity (%)
Use % as the unit, but write only the number.

# count of solved cases: 3
• O=[N+]([O-])c1ccc(-c2nc(-c3ccc(F)cc3)c(-c3ccncc3)[nH]2)cc1 = 94
• NC(=O)c1ccc2[nH]c(-c3ccc(Oc4ccc(Cl)cc4)cc3)nc2c1 = 140
• CC(C)n1cnc2c(NCc3ccccc3)nc(NCCCO)nc21 = 98

# residual activity (molecule: "COc1ccc(CNc2nc(N(CCO)CCO)nc3c2ncn3C(C)C)cc1" ) is 101

# residual activity (molecule: "O=C1NC(=O)/C(=C/c2ccc3c(c2)OC(F)(F)O3)S1" ) is 104

* * *

Assayed System: Myosin light chain kinase, smooth muscle (Homo sapiens)
Assay Conditions: at 10 µM
The following ranges of residual activity define the classes used here: lower level: < 50%; middle level: ≥ 50% and < 80%; upper level: ≥ 80%

Here's what some known entries look like.
- COc1ccc(OC)c2c(=S)c3ccccc3[nH]c12: middle level
- Oc1ccc(Nc2nc(-c3ccc(Cl)cc3)cs2)cc1: middle level
- CC(C)n1cnc2/c(=N/c3cccc(Cl)c3)nc(NCCO)[nH]c21: lower level
- CC(=O)c1ccc(N2CCOCC2)cc1O: upper level
- COc1cc2ncc(-c3ccccc3)nc2cc1OC: upper level
- O=C1Nc2ccc(Br)cc2/C1=C\c1cc2c([nH]1)CCCC2: upper level

Which residual activity band matches "Nc1n[nH]c2nnc(-c3c(-c4ccccc4)nn4ccccc34)cc12" ?
middle level

Which residual activity band matches "O=C1NC(=O)c2c1c1c3ccccc3[nH]c1c1[nH]c3cc(Br)ccc3c21" ?
lower level

Which residual activity band matches "O=c1c2ccccc2[nH]c(=S)n1CCN1CCC(=C(c2ccc(F)cc2)c2ccc(F)cc2)CC1" ?
upper level

Which residual activity band matches "CN(C)c1ccc(/C=C2\C(=O)Nc3ccccc32)cc1" ?
middle level

Which residual activity band matches "Oc1c2ccccc2c2c3c(cccc13)N=N2" ?
lower level

* * *

Assayed System: Serine/threonine-protein kinase 24 (Homo sapiens) (UniProt Q9Y6E0)
Sequence (Q9Y6E0 whole entry, looked up): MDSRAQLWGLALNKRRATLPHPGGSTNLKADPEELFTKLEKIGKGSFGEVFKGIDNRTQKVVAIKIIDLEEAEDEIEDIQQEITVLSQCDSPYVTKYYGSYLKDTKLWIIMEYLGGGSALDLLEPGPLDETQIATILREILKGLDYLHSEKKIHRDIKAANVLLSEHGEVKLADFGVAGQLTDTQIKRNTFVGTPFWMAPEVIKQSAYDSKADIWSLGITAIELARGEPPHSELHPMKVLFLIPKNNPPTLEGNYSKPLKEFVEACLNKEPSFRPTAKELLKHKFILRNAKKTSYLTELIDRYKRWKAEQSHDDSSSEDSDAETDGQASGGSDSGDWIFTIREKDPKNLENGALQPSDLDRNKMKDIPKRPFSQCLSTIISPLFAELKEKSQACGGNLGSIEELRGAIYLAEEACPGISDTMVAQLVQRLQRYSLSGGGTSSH
Assay Conditions: at 1 µM
Entries and their residual activity
Use % as the unit, but write only the number.

* CC(=O)O/N=C1\C(=C2\C(=O)Nc3cc(Br)ccc32)Nc2ccccc21 | 85
* c1ccc(-c2n[nH]c3c2oc2ccccc23)cc1 | 66
* O=C1c2ccccc2-[n+]2ccc3c([nH]c4ccccc43)c21 | 71
* Cn1cnc2cc3c(Nc4cccc(Br)c4)ncnc3cc21 | 78
* Oc1n[nH]c2nnc(-c3c(-c4ccccc4)nn4ccccc34)cc12 | 72
* Cc1nc2cc3nc(-c4cccs4)cnc3cc2n1C | 90
* c1ccc(-c2n[nH]cc2-c2ccnc3ccccc23)nc1 | 66
* O=c1c2ccccc2[nH]c(=S)n1CCN1CCC(=C(c2ccc(F)cc2)c2ccc(F)cc2)CC1 | 71
* O=C1NC(=O)c2cc(Nc3ccc(F)cc3)c(Nc3ccc(F)cc3)cc21 | 68
* O=C(Nc1cccc(Nc2cc(Nc3cccc(C(F)(F)F)c3)ncn2)c1)C1CC1 | 69

Kindly consider the entry below.
# residual activity (compound: "Cn1nc2c3c(cccc31)C(=O)c1ccccc1-2" ) is 74

Each recorded value in this set is attributed to ChEMBL document CHEMBL2218924.
